- assayProcedure: xn = mol fraction of the nth substance listed
- assayConditions: 318.15 K, x1 = 0.25
quantityMeasured: surface tension liquid-gas (mN/m)

- molecule: "CCOC(=O)Cc1ccccc1 [ethyl phenylacetate] + CCO"
  surface tension liquid-gas (mN/m): 23.5
- molecule: "CCCCCC(=O)OCC [ethyl hexanoate] + CCO"
  surface tension liquid-gas (mN/m): 21.9
- molecule: "CCCC(=O)OCCC(C)C [3-methylbutyl butanoate] + CCO"
  surface tension liquid-gas (mN/m): 21.6
- molecule: "CC(=O)OCCC(C)C [3-methylbutyl ethanoate] + CCO"
  surface tension liquid-gas (mN/m): 20.9
- molecule: "CCCCCCCC(=O)OCC [ethyl octanoate] + CCO"
  surface tension liquid-gas (mN/m): 22.6
- molecule: "CCOC(=O)c1ccccc1 [ethyl benzoate] + CCO"
  surface tension liquid-gas (mN/m): 24.1
